# experimental_system: T1, human Nectin-4 extracellular antigen hNectin-4-His (human, UniProt Q96NY8 32-349)
# T1 construct: C-terminal 8xHis tag included
# T1 sequence: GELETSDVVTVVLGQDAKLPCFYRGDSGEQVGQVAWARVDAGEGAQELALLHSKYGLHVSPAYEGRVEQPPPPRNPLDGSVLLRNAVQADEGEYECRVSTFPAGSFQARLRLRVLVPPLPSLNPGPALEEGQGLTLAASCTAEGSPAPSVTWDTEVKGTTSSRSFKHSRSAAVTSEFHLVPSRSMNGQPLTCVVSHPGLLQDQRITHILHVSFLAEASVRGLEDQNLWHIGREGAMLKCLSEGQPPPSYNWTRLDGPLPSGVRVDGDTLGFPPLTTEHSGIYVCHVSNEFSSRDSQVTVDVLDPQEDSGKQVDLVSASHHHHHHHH
# protocol_details: SPR, antibody on Protein A chip, 1:1 fit
In this section we review reported kon values for a set of binders.

binder	kon (M⁻¹ s⁻¹)
antibody 1G8-2G8 (antibody, human IgG1, kappa, V domains shown) VH: EVQLVESGGGLVQPGGSLRLSCAASGFNFTNYAMSWVRQAPGKGLEWVSRISTYGDTTHYADSVKGRFTISRDNSKNTLYLQMNSLRAEDTAVYYCARQTEDRSYGYDLDYWGQGTLVTVSS VL: DIQMTQSPSSLSASVGDRVTITCRASQGISSYLAWYQQKPGKAPKLLIYAASSLQSGVPSRFSGSGSGTDFTLTISSLQPEDFATYYCQQHYTTPPTFGQGTKVEIKR	758000
antibody 1F3-1A9 (antibody, human IgG1, kappa, V domains shown) VH: EVQLVESGGGLVQPGGSLRLSCAASGYSFDNYAMSWVRQAPGKGLEWVSRISPTGGYASYADSVKGRFTISRDNSKNTLYLQMNSLRAEDTAVYYCARAELLAFDVYTASDYWGQGTLVTVSS VL: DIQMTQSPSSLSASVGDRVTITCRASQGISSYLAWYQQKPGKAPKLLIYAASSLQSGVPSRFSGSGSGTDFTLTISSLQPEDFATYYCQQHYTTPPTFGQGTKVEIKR	1.55e+06
antibody 10F4-3 (antibody, human IgG1, kappa, V domains shown) VH: EVQLVESGGGLVQPGGSLRLSCAASGFSFGDFAMSWVRQAPGKGLEWVSVIDGHTAYNSYADSVKGRFTISRDNSKNTLYLQMNSLRAEDTAVYYCAREYSDVVDYVSVRTPLDYWGQGTLVTVSS VL: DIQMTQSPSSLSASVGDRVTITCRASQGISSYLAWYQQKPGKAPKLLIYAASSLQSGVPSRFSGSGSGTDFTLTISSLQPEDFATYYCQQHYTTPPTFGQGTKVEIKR	346000
